target: p56^lyn (Homo sapiens, UniProt P07948); construct: purchased Upstate Biotechnology Inc; assay: kinase assay, p56lyn; format: biochemical; settings: poly [Glu,Tyr](4:1) substrate
Sequence (P07948 whole entry, species assumed): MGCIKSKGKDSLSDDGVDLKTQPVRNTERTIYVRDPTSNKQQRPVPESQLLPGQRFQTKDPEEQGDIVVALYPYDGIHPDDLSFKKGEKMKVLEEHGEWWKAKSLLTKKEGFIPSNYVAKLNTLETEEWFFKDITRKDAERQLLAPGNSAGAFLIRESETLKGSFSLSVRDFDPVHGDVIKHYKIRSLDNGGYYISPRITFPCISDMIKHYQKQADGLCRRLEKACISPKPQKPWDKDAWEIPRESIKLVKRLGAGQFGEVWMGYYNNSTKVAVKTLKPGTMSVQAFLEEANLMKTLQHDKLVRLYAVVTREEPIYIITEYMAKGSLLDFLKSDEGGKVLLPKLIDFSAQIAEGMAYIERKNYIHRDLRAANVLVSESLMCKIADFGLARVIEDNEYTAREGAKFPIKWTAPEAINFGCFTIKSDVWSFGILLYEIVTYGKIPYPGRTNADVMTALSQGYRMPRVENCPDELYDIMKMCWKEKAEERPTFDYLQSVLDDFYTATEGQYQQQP
The reader will find reported IC50, p56^lyn values listed item by item below.
Answer format: numeric, µg/mL implied, no suffix.

Query: Entry under review: N=c1oc2c(O)c(O)ccc2cc1C(=O)Nc1cccc(O)c1 [Compound 18TA] . Reported IC50, p56^lyn?
Result: 18

Query: Given the entry N=c1oc2c(O)c(O)ccc2cc1C(=O)Nc1cccc(CO)c1 [Compound 18TABA] , report its measured IC50, p56^lyn.
Result: 20

Query: Item N=c1oc2c(O)cccc2cc1C(=O)Nc1ccc(O)cc1 [Compound 9T] has what recorded IC50, p56^lyn?
Result: 20

Query: Report IC50, p56^lyn for CC(=O)c1cccc(NC(=O)c2cc3ccc(O)c(O)c3oc2=N)c1 [Compound 18ACTA] please.
Result: 10

Query: I'd like to know its IC50, p56^lyn. The compound in question is N=c1oc2cc(O)cc(O)c2cc1C(=O)Nc1ccc(O)cc1 [Compound 19T]
Result: 5

New cases:
Query: Any idea what its IC50, p56^lyn is? The compound is N=c1oc2cc(O)cc(O)c2cc1C(=O)Nc1cccc(O)c1 [Compound 19TA]
Result: 5

====

biological target: p60^c-src (Homo sapiens, UniProt P12931); construct: purchased Upstate Biotechnology Inc; assay: kinase assay, purified p60c-src, poly [Glu,Tyr](4:1) substrate; type: biochemical; details: p60^c-src; hydroxymethyl versus hydroxy N-phenyl analogue
Sequence (P12931 whole entry): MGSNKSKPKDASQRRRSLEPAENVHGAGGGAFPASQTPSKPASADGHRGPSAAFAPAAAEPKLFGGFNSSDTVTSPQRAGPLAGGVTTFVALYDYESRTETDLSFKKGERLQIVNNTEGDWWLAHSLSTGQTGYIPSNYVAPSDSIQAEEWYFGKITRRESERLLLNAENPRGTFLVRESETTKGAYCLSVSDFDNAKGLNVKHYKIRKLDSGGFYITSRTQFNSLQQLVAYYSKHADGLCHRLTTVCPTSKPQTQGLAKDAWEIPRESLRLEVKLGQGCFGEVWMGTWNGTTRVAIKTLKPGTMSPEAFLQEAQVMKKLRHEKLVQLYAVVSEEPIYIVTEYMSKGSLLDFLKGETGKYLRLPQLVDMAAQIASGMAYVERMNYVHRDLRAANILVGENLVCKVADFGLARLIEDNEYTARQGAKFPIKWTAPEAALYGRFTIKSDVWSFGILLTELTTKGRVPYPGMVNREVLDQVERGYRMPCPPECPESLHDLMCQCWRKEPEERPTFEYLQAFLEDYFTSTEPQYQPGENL
Measurement Kind: potency relative to the hydroxylated parent compound (in words)

Query: Entry N=c1oc2c(O)c(O)ccc2cc1C(=O)Nc1cccc(CO)c1 [Compound 18TABA] , system p60^c-src (Homo sapiens, UniProt P12931): what potency relative to the hydroxylated parent compound (in words) was measured?
Result: not more potent

Query: Return potency relative to the hydroxylated parent compound (in words) measured with p60^c-src (Homo sapiens, UniProt P12931) given this compound: N=c1oc2c(O)c(O)ccc2cc1C(=O)Nc1ccccc1CO [Compound 18TOBA]
Result: much more potent

Query: Form: Entry = N=c1oc2c(O)cccc2cc1C(=O)Nc1cccc(CO)c1 [Compound 9TABA] | System = p60^c-src (Homo sapiens, UniProt P12931) | potency relative to the hydroxylated parent compound (in words) = ____
Result: not more potent

Query: Find potency relative to the hydroxylated parent compound (in words) (p60^c-src (Homo sapiens, UniProt P12931)) for the entry N=c1oc2c(O)cccc2cc1C(=O)Nc1ccccc1CO [Compound 9TOBA]
Result: much more potent

====

Biological target: p60^c-src (Homo sapiens, UniProt P12931)
Construct: purchased Upstate Biotechnology Inc
Assay: kinase assay, purified p60c-src, poly [Glu,Tyr](4:1) substrate
Assay type: biochemical
Description: Purified p60^c-scr and Src-family kinases p56^lck, p56^lyn, and p55^fyn were obtained from Upstate Biotechnology Inc. Kinase assays were performed as described by A. Gezit, J. Med.
Measurement Kind: inhibition of p60^c-src kinase (in words)

Query: Item N=c1oc2c(O)c(O)ccc2cc1C(=O)Nc1ccccc1O [Compound 18TO] has what recorded inhibition of p60^c-src kinase (in words)?
Result: relatively weak activity

Query: Recorded inhibition of p60^c-src kinase (in words) for `N=c1oc2c(O)cccc2cc1C(=O)Nc1cccc(O)c1` , please?
Result: strong inhibitory effect

Query: Which inhibition of p60^c-src kinase (in words) reading was recorded for the compound `N=c1oc2c(O)cccc2cc1C(=O)Nc1ccccc1O` ?
Result: relatively weak activity

Query: GET /values?readout=inhibition of p60^c-src kinase (in words)&item= N=c1oc2c(O)c(O)ccc2cc1C(=O)Nc1cccc(O)c1 [Compound 18TA]
Result: strong inhibitory effect

====

Each item that follows carries a reported IC50, p56^lck.
target: p56^lck (Homo sapiens, UniProt P06239); construct: purchased Upstate Biotechnology Inc; test: kinase assay, p56lck; format: biochemical; conditions: poly [Glu,Tyr](4:1) substrate
Sequence (P06239 whole entry, species assumed): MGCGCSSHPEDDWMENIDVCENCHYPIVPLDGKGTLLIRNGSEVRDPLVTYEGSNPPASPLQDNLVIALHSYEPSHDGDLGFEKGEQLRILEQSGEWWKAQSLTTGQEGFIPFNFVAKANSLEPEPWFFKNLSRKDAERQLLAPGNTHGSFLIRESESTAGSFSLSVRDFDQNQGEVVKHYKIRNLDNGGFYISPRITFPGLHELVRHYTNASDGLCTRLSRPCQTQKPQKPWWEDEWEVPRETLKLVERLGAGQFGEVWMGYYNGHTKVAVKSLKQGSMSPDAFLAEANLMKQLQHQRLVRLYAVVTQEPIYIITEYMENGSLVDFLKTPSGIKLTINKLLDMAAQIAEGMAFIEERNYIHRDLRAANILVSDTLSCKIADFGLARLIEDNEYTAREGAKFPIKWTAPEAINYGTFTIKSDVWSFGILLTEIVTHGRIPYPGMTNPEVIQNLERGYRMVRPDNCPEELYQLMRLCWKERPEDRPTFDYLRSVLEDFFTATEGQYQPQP
Number plus unit, in that order.

Please review the following examples before continuing.
Query: Can you look up the measured IC50, p56^lck of N=c1oc2c(O)c(O)ccc2cc1C(=O)Nc1ccc(O)cc1 [Compound 18T] for me?
Result: 5 µg/mL

Query: What does the record list as IC50, p56^lck for `N=c1oc2c(O)c(O)ccc2cc1C(=O)Nc1ccccc1CO` ?
Result: 5 µg/mL

---
Query: # IC50, p56^lck lookup, item `N=c1oc2c(O)cccc2cc1C(=O)Nc1ccc(O)cc1`
Result: 0.62 µg/mL

Query: For N=c1oc2c(O)c(O)ccc2cc1C(=O)Nc1cccc(O)c1 [Compound 18TA] , what is its reported IC50, p56^lck?
Result: 20 µg/mL

Query: For the compound COc1ccc2oc(=N)c(C(=O)Nc3ccc(O)cc3)cc2c1 [Compound 16T] , what IC50, p56^lck is on record?
Result: 7.5 µg/mL

Query: What IC50, p56^lck value was documented for this compound, N=c1oc2cc(O)cc(O)c2cc1C(=O)Nc1ccc(O)cc1 [Compound 19T] ?
Result: 2 µg/mL

Query: Form field: reported IC50, p56^lck of `N=c1oc2c(O)cccc2cc1C(=O)Nc1cccc(O)c1`
Result: 0.62 µg/mL

Query: # lookup: IC50, p56^lck of `N=c1oc2c(O)cccc2cc1C(=O)Nc1ccccc1O`
Result: 1.2 µg/mL

Query: Name the reported IC50, p56^lck value associated with the compound N=c1oc2cc(O)cc(O)c2cc1C(=O)Nc1cccc(O)c1 [Compound 19TA]
Result: 3.75 µg/mL

Query: What does the data say about its IC50, p56^lck? Entry: N=c1oc2c(O)c(O)ccc2cc1C(=O)Nc1ccccc1O [Compound 18TO]
Result: 20 µg/mL

====

target: p60^c-src (Homo sapiens, UniProt P12931); construct: purchased Upstate Biotechnology Inc; assay: kinase assay, purified p60c-src, poly [Glu,Tyr](4:1) substrate; format: biochemical; conditions: purified kinase, poly [Glu,Tyr](4:1) substrate
Rule for this label: condition met means IC50, p60^c-src is less than 2 µg/mL; condition not met means IC50, p60^c-src is at least 2 µg/mL.

Answered cases to consult:
Query: Lab note: confirm whether the reported IC50, p60^c-src for this compound is below 2 µg/mL, equality not counting. compound: `N=c1oc2c(O)c(O)ccc2cc1C(=O)Nc1cccc(CO)c1`
Result: condition not met

Query: # strict comparison: is reported IC50, p60^c-src < 2 µg/mL? input = `N=c1oc2c(O)cccc2cc1C(=O)Nc1ccccc1CO`
Result: condition met

Query: Threshold test, IC50, p60^c-src < 2 µg/mL: `N=c1oc2c(O)c(O)ccc2cc1C(=O)Nc1ccccc1CO`
Result: condition met

---
Query: Take the compound `N=c1oc2ccc(O)cc2cc1C(=O)Nc1ccc(O)cc1` and say whether its IC50, p60^c-src is less than 2 µg/mL.
Result: condition not met

Query: Please check: IC50, p60^c-src for `CC(=O)c1cccc(NC(=O)c2cc3ccc(O)c(O)c3oc2=N)c1` , strictly under 2 µg/mL or not?
Result: condition not met

Query: Given the entry N=c1oc2c(O)c(O)ccc2cc1C(=O)Nc1ccc(O)cc1 [Compound 18T] , would its reported IC50, p60^c-src be below 2 µg/mL?
Result: condition not met

Query: Strictly below 2 µg/mL: is that where IC50, p60^c-src of `N=c1oc2c(O)cccc2cc1C(=O)Nc1cccc(CO)c1` sits?
Result: condition not met

Query: Lab note: confirm whether the reported IC50, p60^c-src for this compound is below 2 µg/mL, equality not counting. compound: `N=c1oc2c(O)cccc2cc1C(=O)Nc1cccc(O)c1`
Result: condition met

Query: Does this compound meet the criterion IC50, p60^c-src < 2 µg/mL? COc1cccc2cc(C(=O)Nc3cccc(O)c3)c(=N)oc12 [Compound 32TA]
Result: condition met

Query: Just wondering, is IC50, p60^c-src of `N=c1oc2cc(O)ccc2cc1C(=O)Nc1cccc(O)c1` below 2 µg/mL?
Result: condition not met

Query: Report whether reported IC50, p60^c-src is lower than 2 µg/mL (strictly) for N=c1oc2cc(O)cc(O)c2cc1C(=O)Nc1ccccc1O [Compound 19TO]
Result: condition not met

Query: Hi there! Is IC50, p60^c-src for `N=c1oc2cc(O)ccc2cc1C(=O)Nc1ccccc1O` below 2 µg/mL, do you know?
Result: condition met

====

# IC50, p60^c-src listing for each entry below
biological target: p60^c-src (Homo sapiens, UniProt P12931); construct: purchased Upstate Biotechnology Inc; test: kinase assay, purified p60c-src, poly [Glu,Tyr](4:1) substrate; assay type: biochemical; settings: purified kinase, poly [Glu,Tyr](4:1) substrate
Write the numeric value and append its unit.

# example entries with known answers
Query: Look up IC50, p60^c-src for this compound: COc1ccc2oc(=N)c(C(=O)Nc3ccc(O)cc3)cc2c1 [Compound 16T]
Result: 12.5 µg/mL

Query: Give the measured IC50, p60^c-src of `N=c1oc2cc(O)ccc2cc1C(=O)Nc1ccc(O)cc1` .
Result: 1.2 µg/mL

Query: Bench note: what IC50, p60^c-src did N=c1oc2ccccc2cc1C(=O)Nc1cccc(O)c1 [Compound 25TA] show?
Result: 10 µg/mL

Query: Returns the measured IC50, p60^c-src for the input compound. Input: `N=c1oc2ccc(O)cc2cc1C(=O)Nc1cccc(O)c1`
Result: 1.3 µg/mL

Query: Given the entry N=c1oc2cc(O)cc(O)c2cc1C(=O)Nc1cccc(O)c1 [Compound 19TA] , report its measured IC50, p60^c-src.
Result: 1.25 µg/mL

Further cases:
Query: For the compound shown here, N=c1oc2cc(O)cc(O)c2cc1C(=O)Nc1ccc(O)cc1 [Compound 19T] , give the reported IC50, p60^c-src.
Result: 0.2 µg/mL

Query: What IC50, p60^c-src value was documented for this compound, N=c1oc2c(O)c(O)ccc2cc1C(=O)Nc1cccc(O)c1 [Compound 18TA] ?
Result: 0.225 µg/mL

Query: Given the entry N=c1oc2c(O)c(O)ccc2cc1C(=O)Nc1ccccc1O [Compound 18TO] , report its measured IC50, p60^c-src.
Result: 12 µg/mL
